System: Vero E6 cells
assayNotes: Cytotoxicity, CellTiter-Blue Cell Viability Assay
assayContext: Vero E6 cells, CellTiter-Blue
measurementType: CC50 (µM)

| compoundString | numericReadout |
| --- | --- |
| COc1c(/C=C/C(=O)c2ccc(O)cc2)ccc(O)c1O | 106 |
